target: recombinant human PAI-1 (Homo sapiens, UniProt P05121); construct: purchased Molecular Innovations, Inc; test: Test Example 1: human PAI-1 inhibitory activity (tPA fluorogenic substrate, pH 7.5 Tris buffer); format: biochemical; conditions: Compound Concentration 5 μM; Tris buffer
Sequence (P05121 24-402): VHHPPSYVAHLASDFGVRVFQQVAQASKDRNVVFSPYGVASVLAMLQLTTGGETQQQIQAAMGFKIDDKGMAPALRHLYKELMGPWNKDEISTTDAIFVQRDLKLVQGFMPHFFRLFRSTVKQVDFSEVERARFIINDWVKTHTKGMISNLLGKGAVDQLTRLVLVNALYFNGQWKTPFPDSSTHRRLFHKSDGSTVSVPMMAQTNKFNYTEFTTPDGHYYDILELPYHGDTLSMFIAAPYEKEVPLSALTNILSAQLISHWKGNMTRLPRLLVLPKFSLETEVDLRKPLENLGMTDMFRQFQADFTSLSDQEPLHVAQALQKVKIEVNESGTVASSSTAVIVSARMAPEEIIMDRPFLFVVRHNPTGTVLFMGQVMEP
Metric Name: Inhibition Rate of PAI-1 Activity (%)

// worked examples, Inhibition Rate of PAI-1 Activity (%) included
O=C(O)C(=O)N(CCCCc1ccccc1)c1ccc(-c2ccc(OC(F)(F)F)cc2)cc1 ... 27
CC(C)(C)c1ccc(-c2ccc(N(Cc3ccccc3)C(=O)C(=O)O)cc2)cc1 ... 10
O=C(O)C(=O)N(Cc1ccc(Cl)cc1Cl)c1ccc(-c2ccc(OC(F)(F)F)cc2)cc1 ... 3
CC(C)(C)c1ccc(COc2cc(/C=C/C(=O)O)cc(Oc3ccc(OC(F)(F)F)cc3)c2)cc1 ... 26
CC(C)(C)c1ccc(-c2ccc(N(Cc3ccc(C(F)(F)F)cc3)C(=O)C(=O)O)cc2)cc1 ... 50

I = CCCCCOc1ccc(-c2ccc(OC(F)(F)F)cc2)cc1N(CCCCCc1ccccc1)C(=O)C(=O)O
II = CC(C)(C)c1ccc(COc2ccc(-c3ccc(C(F)(F)F)cc3)cc2/C=C/C(=O)O)cc1
III = Cc1cc(-c2ccc(OC(F)(F)F)cc2)cc(C)c1N(Cc1ccc(C(C)(C)C)cc1)C(=O)C(=O)O
IV = Cc1cccc(CN(C(=O)C(=O)O)c2ccc(-c3ccc(OC(F)(F)F)cc3)cc2)c1
Query: Arrange these 4 compounds in increasing order of Inhibition Rate of PAI-1 Activity (%). Please respond by ranking the labels in the order requested.
Reply: IV, II, III, I

1 = CC(C)(C)c1ccc(Oc2cc(-c3ccc(OC(F)(F)F)cc3)ccc2OC(F)C(=O)O)cc1 (stereo not drawn)
2 = CC(C)(C)c1ccc(COc2cccc(Oc3ccc(OC(F)(F)F)cc3)c2/C=C/C(=O)O)cc1
Query: Consider 1 and 2 . Which of these has its Inhibition Rate of PAI-1 Activity (%) at a higher number? Your answer should be the label of the entry you select.
Reply: 1

A = CC(C)(C)c1ccc(COc2ccc(-c3ccccc3OC(F)(F)F)cc2/C=C/C(=O)O)cc1
B = COc1cc(-c2ccc(OC(F)(F)F)cc2)cc(CCC(=O)O)c1OCc1ccc(C(C)(C)C)cc1
C = CC(C)(C)c1ccc(CN(C(=O)C(=O)O)c2ccc(Cl)cc2Oc2ccc(OC(F)(F)F)cc2)cc1
D = CC(C)(C)c1ccc(COc2ccc(-c3ccc(OC(F)(F)F)cc3)cc2NCC(=O)O)cc1
Query: Arrange these 4 compounds in increasing order of Inhibition Rate of PAI-1 Activity (%). Please respond by ranking the labels in the order requested.
Reply: D, B, A, C
(D: 14%, B: 26%, A: 42%, C: 74%)

P = CC(C)(C)c1ccc(COc2ccc(-c3ccccc3)cc2CCC(=O)O)cc1
Q = CC(C)(C)c1ccc(-c2ccc(N(Cc3ccc(Cl)cc3)C(=O)C(=O)O)cc2)cc1
Query: Given the two records P and Q , choose the one whose Inhibition Rate of PAI-1 Activity (%) value is lower. Your answer should be the label of the entry you select.
Reply: P

A = CC(C)(C)c1ccc(CN(C(=O)C(=O)O)c2ccc(-c3ccc(F)cc3)cc2)cc1
B = CCC(CC)Oc1ccc(N(CCCc2ccccc2)C(=O)C(=O)O)c(-c2ccc(OC(F)(F)F)cc2)c1
C = CC(C)(C)c1ccc(-c2ccc(OCc3ccc(C(F)(F)F)cc3)c(CCC(=O)O)c2)cc1
D = CC(C)(C)c1ccc(-c2ccc(OCc3ccc(OC(F)(F)F)cc3)c(/C=C/C(=O)O)c2)cc1
Query: Order the items by recorded Inhibition Rate of PAI-1 Activity (%); the first position goes to the largest value. Please respond by ranking the labels in the order requested.
Reply: B, C, D, A

P = CC(C)(C)c1ccc(-c2ccc(OCc3ccccc3)c(/C=C/C(=O)O)c2)cc1
Q = Cc1cc(N(C)C)c(-c2ccc(OC(F)(F)F)cc2)cc1N(Cc1ccc(C(C)(C)C)cc1)C(=O)C(=O)O
R = CC(C)(C)c1ccc(COc2ccc(OCc3ccc(OC(F)(F)F)cc3)cc2CCC(=O)O)cc1
Query: Arrange these 3 compounds in increasing order of Inhibition Rate of PAI-1 Activity (%). Please respond by ranking the labels in the order requested.
Reply: P, R, Q

a = Cc1cc(-c2ccc(OC(F)(F)F)cc2)cc(CCC(=O)O)c1OCc1ccc(C(C)(C)C)cc1
b = CC(C)Oc1ccc(N(CCCc2ccccc2)C(=O)C(=O)O)c(-c2ccc(OC(F)(F)F)cc2)c1
Query: Given the two records a and b , choose the one whose Inhibition Rate of PAI-1 Activity (%) value is lower. Your answer should be the label of the entry you select.
Reply: a

A = CC(c1ccc(C(C)(C)C)cc1)N(C(=O)C(=O)O)c1ccc(-c2ccc(OC(F)(F)F)cc2)cc1 (stereo not drawn)
B = O=C(O)CCc1cc(-c2ccc(OC(F)(F)F)cc2)ccc1OCCCOc1ccccc1
Query: Given the two records A and B , choose the one whose Inhibition Rate of PAI-1 Activity (%) value is lower. Your answer should be the label of the entry you select.
Reply: B

a = CCCCc1ccc(-c2ccc(N(Cc3ccc(C(C)(C)C)cc3)C(=O)C(=O)O)cc2)cc1
b = CC(C)(C)c1ccc(-c2ccc(N(Cc3ccccc3OC(F)(F)F)C(=O)C(=O)O)cc2)cc1
Query: Given the two records a and b , choose the one whose Inhibition Rate of PAI-1 Activity (%) value is lower. Your answer should be the label of the entry you select.
Reply: a
